System: SN12C renal
Experiment: NCI-60 one-dose screen, 48 h (100 = growth as untreated, 0 = no growth, -100 = all killed)
Settings: 10 µM unless noted
This is part of a sample that, as a whole, favours compounds with a hit. Of some 83,000 tested, about 20% had one in any assay.
Property: growth; scope: individual compounds
Observable: growth (%)

- Compound: "CSc1nc(-c2ccco2)c(C#N)c(=O)n1C"
  Observable: "growth"
  Assay Value: 110
- Compound: "CNC(=O)NCC1OC(n2cnc3c(NC(=O)Nc4ccccc4)ncnc32)C2OC(=O)CC12 (stereo not drawn)"
  Observable: "growth"
  Assay Value: 113
- Compound: "O=C1/C(=C/c2ccc(Cl)cc2)CN(C(=O)C(Cl)Cl)C/C1=C\\c1ccc(Cl)cc1"
  Observable: "growth"
  Assay Value: -75.7
- Compound: "CCCCCCCCn1ccc2cc(NC(=O)CN=[N+]=[N-])ccc21"
  Observable: "growth"
  Assay Value: 107
- Compound: "O=C(NCCNC(c1ccccc1)C(NCCNC(=O)c1ccccc1)c1ccccc1)c1ccccc1 (stereo not drawn)"
  Observable: "growth"
  Assay Value: 97.7
- Compound: "c1ccc(-c2c(-c3ccccc3)[n+](Cc3ccc4ccccc4c3)cn2Cc2ccc3ccccc3c2)cc1"
  Observable: "growth"
  Assay Value: -76
- Compound: "CN1CC(c2ccc(Br)cc2)C(C(=O)c2ccc(Br)cc2)C12C(=O)Nc1ccccc12 (stereo not drawn)"
  Observable: "growth"
  Assay Value: 70
- Compound: "COc1ccc(/C=C2\\CN(C(=O)C(Cl)Cl)C/C(=C\\c3ccc(OC)c(OC)c3)C2=O)cc1OC"
  Observable: "growth"
  Assay Value: -60.6
- Compound: "O=C(Nc1cc(Cl)ccc1O)c1ccccc1Nc1ccnc(C(F)(F)F)c1"
  Observable: "growth"
  Assay Value: 3.5
- Compound: "O=c1oc2c(cc1-c1ccccc1)c(=O)[nH]c1ccccc12"
  Observable: "growth"
  Assay Value: 96.6
- Compound: "C=CC(=O)Nc1cccc(Oc2nccc(Nc3nnc(-c4ccc(Br)cc4)s3)n2)c1"
  Observable: "growth"
  Assay Value: 99.2
- Compound: "Nc1ncnc2c1N=C(c1ccc(F)cc1)CC(c1cccc(Nc3ccnc4cc(Cl)ccc34)c1)N2 (stereo not drawn)"
  Observable: "growth"
  Assay Value: 79.7
- Compound: "CSc1ccc2c3c(n(C[C@H](O)CO)c(=O)c2c1)-c1ccccc1C3=O"
  Observable: "growth"
  Assay Value: 23.1
- Compound: "COc1ccc(-c2nc(SCC(=O)Nc3nc4ccc(C)cc4s3)[nH]c(=O)c2C#N)cc1OC"
  Observable: "growth"
  Assay Value: 95.9
- Compound: "O=c1oc2ccccc2cc1-c1nn(-c2ccccc2)cc1-c1nn[nH]n1"
  Observable: "growth"
  Assay Value: 96.2
- Compound: "CCOC(=O)c1cnn(CC(C)O)c1NC(=O)NCc1cccc(F)c1 (stereo not drawn)"
  Observable: "growth"
  Assay Value: 103
- Compound: "C=C1CC[C@@H]2C(C)(C)[C@H](O)CC[C@@]2(C)[C@@H]1COc1ccc2ccc(=O)oc2c1"
  Observable: "growth"
  Assay Value: 67.3
- Compound: "O=C(Nc1cc(Cl)cc(Cl)c1)Oc1c(Cl)c(Cl)c(Cl)c(Cl)c1Cl"
  Observable: "growth"
  Assay Value: 71.2
- Compound: "CC(C)(C)CC(C)(C)Nc1c(-c2c(O)c3ccccc3oc2=O)nc2sc3ccccc3n12"
  Observable: "growth"
  Assay Value: 51
- Compound: "COc1ccc(/C=C(\\C(=O)NCc2cccnc2)S(=O)(=O)c2ccccc2)cc1OC"
  Observable: "growth"
  Assay Value: 10.9
- Compound: "CC(C)CCC[C@@H](C)[C@H]1CC[C@H]2[C@@H]3CC=C4c5sc(Nc6cc(C(F)(F)F)cc(C(F)(F)F)c6)nc5CC[C@]4(C)[C@H]3CC[C@]12C"
  Observable: "growth"
  Assay Value: 92.3
- Compound: "COc1cccc(-c2cn3nc(-c4cn(C)c5ccccc45)sc3n2)c1"
  Observable: "growth"
  Assay Value: 92
- Compound: "COc1c2c(cc3c1C(=O)N[C@@H]1[C@@H](O)[C@@H](O)[C@H](O)C[C@@H]31)OCCO2"
  Observable: "growth"
  Assay Value: 103
- Compound: "Fc1ccc(/C=C/[C@@H]2C[C@@H](F)CCO2)cc1"
  Observable: "growth"
  Assay Value: 100
- Compound: "C=C(C)[C@@H]1CC[C@]2(COC3CCCCO3)CC[C@]3(C)[C@H](CC[C@@H]4[C@@]5(C)C=C(C=O)C(=O)C(C)(C)[C@@H]5CC[C@]43C)[C@@H]12 (stereo partly drawn)"
  Observable: "growth"
  Assay Value: -48.8
- Compound: "COc1ccc(-c2cc(-c3cc(OC)ccc3OC)nc(SCC(C)=O)c2C#N)cc1"
  Observable: "growth"
  Assay Value: 76.7
- Compound: "O=C(NCCN1CCOCC1)OCc1ccc2c(Cl)cc(Cl)c(O)c2n1"
  Observable: "growth"
  Assay Value: 64.4
- Compound: "Cc1ccc(-c2csc(NC(=O)CSc3nc(N)cc(N)n3)n2)cc1"
  Observable: "growth"
  Assay Value: 82.9
- Compound: "Cc1cc(=O)oc2cc(Oc3nc(Br)cn4c(Br)cnc34)ccc12"
  Observable: "growth"
  Assay Value: 75.8
- Compound: "Cn1c(=O)[nH]c(=O)c2nc3c(nc21)-c1ccccc1C3=O"
  Observable: "growth"
  Assay Value: 96.6
- Compound: "CN(C)c1ccc(/C=N\\NC(=O)c2ccc3nc(-c4ccc(Cl)cc4)[nH]c3c2)cc1"
  Observable: "growth"
  Assay Value: 41.2
- Compound: "c1ccc(-c2ccc3c(c2)C2(CCNCC2)CN3)cc1"
  Observable: "growth"
  Assay Value: 98.7
- Compound: "Cc1ccc(C(=O)c2ccc(CC(=O)N/N=C/c3cccc(O)c3O)n2C)cc1"
  Observable: "growth"
  Assay Value: 46.8
- Compound: "O=C(/C=C/C12c3ccccc3C(c3ccccc31)C1C(=O)NC(=O)C12)c1ccco1 (stereo not drawn)"
  Observable: "growth"
  Assay Value: 22.6
- Compound: "COC(=O)Cn1c2c(c3c(OC)cccc31)C(=O)c1ccccc1-2"
  Observable: "growth"
  Assay Value: 91.4
- Compound: "CC1=Nc2cnc(Nc3ccc(N4CCCCC4)cc3)nc2Nc2ccccc21"
  Observable: "growth"
  Assay Value: 69.7
- Compound: "COc1cc2c(cc1-c1c(C)noc1C)ncc1nc(CN3CCOCC3)n([C@H](C)COC(F)F)c12"
  Observable: "growth"
  Assay Value: 56.7
- Compound: "COc1ccc(-c2cc(C(=O)N3N=C(c4ccc(N)cc4)CC3c3ccc(Cl)cc3)c3ccccc3n2)cc1 (stereo not drawn)"
  Observable: "growth"
  Assay Value: 41
